- assay summary: NCI Yeast Anticancer Drug Screen. Data for the mec2-1 strain (AID 157)
- cond: S. cerevisiae mec2-1 strain, at 50.0 µM (retest, dose inferred, filed as 5.0), stronger effect = higher value
- Description: Growth inhibition of yeast strains with defined genetic alterations is measured as a screen for potential anti-cancer activity. Selected strains with alterations in DNA damage repair or cell cycle control were exposed to compounds and growth inhibition was measured relative to vehicle treated controls. The strain used in this assay is mec2-1
About 79,000 compounds went through this panel and 15% of them were active in at least one assay; those are over-represented in the sample as a whole.
Catalogue of growth inhibition values
Return type: number; implicit unit %.

The examples below pair each entry with its known result.
CC1CN(CC(O)c2ccc(Br)cc2)CC(C)O1 (stereo not given) : 28
C=CC(=O)NC(=O)Nc1ccc(Cl)cc1 : 98
S=C(NCCNC(=S)[S][Sn]([c]1ccccc1)([c]1ccccc1)[c]1ccccc1)[S][Sn]([c]1ccccc1)([c]1ccccc1)[c]1ccccc1 : 96
Clc1ccc2nc3c(c(N4CCOCC4)c2c1)CCCC3 : 99

Continue with the next molecule.
Asked: State the recorded growth inhibition for this entry: C[CH2][Sn]([CH2]C)([O]C(=O)c1cccc(OC)c1)[O][Sn]([CH2]C)([CH2]C)[O]C(=O)c1cccc(OC)c1
Given back: 79
